System: HCC cell lines HEPG2 and HEP3B
Test: Cytotoxicity of gold nanoparticle constructs vs free DM1 (text values)
Assay type: cell-based, human
Details: line for the value not stated
Excerpt: The cytotoxicity of gold nanoparticle constructs GalC2-PEG8COOH-GNP (parent, non-functionalised gold nanoparticle (MTC-100011)), and MTC-100038 were compared to free DM1 drug in the HCC cell lines HEPG2 and HEP3B.
MEASUREMENT NAME: pIC50
Scale: pIC50 equals -log10([C]), with [C] in mol/L.

get_value(item= `COc1cc2cc(c1Cl)N(C)C(=O)C[C@H](OC(=O)[C@H](C)N(C)C(=O)CCS)[C@]1(C)O[C@H]1[C@H](C)[C@@H]1C[C@@](O)(NC(=O)O1)[C@H](OC)/C=C/C=C(\C)C2` , readout=pIC50) returns 8.38

###

Tested on: BEL7404
Test: In vitro cytotoxicity, BEL7404
Type: cell-based
MEASUREMENT NAME: IC50 (nM)
State the answer as a number, implicitly in nM.

Entry COc1cc2cc(c1Cl)N(C)C(=O)C[C@H](OC(=O)[C@H](C)N(C)C(=O)CCS)[C@]1(C)O[C@H]1[C@H](C)[C@@H]1C[C@@](O)(NC(=O)O1)[C@H](OC)/C=C/C=C(\C)C2 [DM1, maytansinoid DM1] — recorded IC50 = 9

###

Test system: Hep3B cells
Experiment: In vitro cytotoxicity, Hep3B
Type: cell-based, human
MEASUREMENT NAME: IC50

The reported IC50 value, Hep3B cells, for `COc1cc2cc(c1Cl)N(C)C(=O)C[C@H](OC(=O)[C@H](C)N(C)C(=O)CCS)[C@]1(C)O[C@H]1[C@H](C)[C@@H]1C[C@@](O)(NC(=O)O1)[C@H](OC)/C=C/C=C(\C)C2` reads 0.011 µM

Where these numbers come from: patent US11179344B2
